Recorded values, source PubChem BioAssay.

procedure_details: inhibitors of TNFa-induced NFkB p65 translocation, primary screen, imaging, HUVEC, MLSMR starter and 10KST1 sets (AID 438);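 note: compound added about 3h40 before a 20 min TNFalpha stimulation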
experimental_context: HUVEC TNFa-induced p65 nuclear translocation; measured here: nuclei count (cytotoxicity indicator), at 2.08 µM
Entries get a class label from measured cell count. See ranges: lo = under 400, mid = from 400 up to 500, hi = 500 and over

[
  {
    "compound": "C=C(C)COc1ccc(-c2n[nH]c(C)c2-c2ccccc2)c(O)c1",
    "qualitative_label": "mid"
  },
  {
    "compound": "c1ccc(C(Cc2nc(-c3ccccn3)no2)c2ccccc2)cc1",
    "qualitative_label": "lo"
  },
  {
    "compound": "COc1ccc(S(=O)(=O)N2CCOCC2)cc1C(=O)Nc1cc(C)on1",
    "qualitative_label": "lo"
  },
  {
    "compound": "CC(=O)C1=C(C)NC(SCSc2ccccc2)=C(C#N)C1c1cccnc1 (stereo not given)",
    "qualitative_label": "mid"
  },
  {
    "compound": "O=C(NC1CCCC1)C1CC1c1ccccc1 (stereo not given)",
    "qualitative_label": "hi"
  },
  {
    "compound": "O=C(Nc1ccc(Cl)cc1C(=O)O)c1ccc2c(c1)C(=O)N(Cc1ccco1)C2=O",
    "qualitative_label": "lo"
  },
  {
    "compound": "Cc1ccc(-c2cc(C(F)F)nc(NCC3CCCO3)n2)cc1 (stereo not given)",
    "qualitative_label": "hi"
  },
  {
    "compound": "C=CCN1C(=O)CS/C1=C(\\C#N)S(=O)(=O)c1ccc(C)cc1",
    "qualitative_label": "hi"
  },
  {
    "compound": "COc1ccc(-c2cc3c(=O)n(CC(=O)NC4CCN(Cc5ccccc5)CC4)ncn3n2)cc1",
    "qualitative_label": "lo"
  },
  {
    "compound": "FC(F)(F)c1nnc2sc(-c3cccs3)nn12",
    "qualitative_label": "lo"
  },
  {
    "compound": "COc1ccc(/C=N/n2cc(-c3ccc(OC)cc3)nc2N)cc1",
    "qualitative_label": "lo"
  }
]

###

procedure_details: endothelial E-selectin expression blockers – imaging, HUVEC, immunofluorescence, MLSMR starter and 10KST1 sets, primary screen (AID 487);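 note: signal is fraction of cell area covered by stained E-selectin grains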
experimental_context: HUVEC TNFalpha-induced E-selectin immunofluorescence imaging, at 2 µM; stronger effect = higher value
Listing of recorded inhibition by entry.
readout_name: inhibition (%)

[
  {
    "compound": "N#Cc1nc(COc2ccccc2)oc1NCCCn1ccnc1",
    "val": 6.7
  },
  {
    "compound": "Cn1c(=O)cc(OCC(=O)NCCCN2CCN(c3cccc(Cl)c3)CC2)c2ccccc21",
    "val": -83.7
  },
  {
    "compound": "COC(=O)CN1C(=O)C(O)(CC(=O)c2ccc(Cl)cc2)c2ccccc21 (stereo not drawn)",
    "val": -40.7
  }
]

###

Listing of recorded slope by entry.
target_or_system: Alpha-2C adrenergic receptor (Homo sapiens) (UniProt P18825)
Sequence (P18825 whole entry, looked up): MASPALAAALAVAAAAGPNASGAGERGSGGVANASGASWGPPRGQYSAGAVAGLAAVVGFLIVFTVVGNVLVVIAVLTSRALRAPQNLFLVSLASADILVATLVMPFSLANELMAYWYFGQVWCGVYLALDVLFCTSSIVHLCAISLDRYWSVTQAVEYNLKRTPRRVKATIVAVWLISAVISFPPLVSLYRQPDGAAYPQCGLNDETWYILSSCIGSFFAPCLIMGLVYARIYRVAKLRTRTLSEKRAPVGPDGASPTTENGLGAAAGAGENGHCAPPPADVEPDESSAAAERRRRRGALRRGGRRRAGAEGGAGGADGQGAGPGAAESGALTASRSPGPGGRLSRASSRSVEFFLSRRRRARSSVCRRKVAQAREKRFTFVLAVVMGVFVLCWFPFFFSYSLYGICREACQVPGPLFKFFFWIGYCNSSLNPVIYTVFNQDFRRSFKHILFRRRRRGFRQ
procedure_details: compounds altering alpha2C-coupled GIRK flux – cell-based, HEK293 alpha2C/GIRK1/2, thallium flux, primary screen (AID 624);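 note: slope of fluorescence ratio to pre-addition baseline per second over 15 to 24 s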
experimental_context: thallium flux BTC fluorescence, at 10 µM, actives lie on both sides
The source made the active and inactive calls.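 The calls were made as follows: active = fluorescence slope after compound addition differing from the mean of all screened samples at 99.7% confidence, in either direction; inactive = the rest.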

[
  {
    "sample_smiles": "CC(=O)Nc1nc(=S)ss1",
    "slope": "0.00751 (inactive)"
  },
  {
    "sample_smiles": "COc1ccc(CCN2CC(O)=C(c3nc4ccccc4c(=O)[nH]3)C2=N)cc1OC",
    "slope": "0.00682 (inactive)"
  },
  {
    "sample_smiles": "Cc1ccc(-c2nnc(N(C)C(=O)c3ccccn3)s2)cn1",
    "slope": "0.00529 (inactive)"
  },
  {
    "sample_smiles": "Cc1ccc(S(=O)(=O)C2(C(=O)Nc3nccs3)CC2)cc1",
    "slope": "0.00637 (inactive)"
  }
]

###

target_or_system: Alpha-2C adrenergic receptor (Homo sapiens)
procedure_details: compounds altering alpha2C-coupled GIRK flux – cell-based, HEK293 alpha2C/GIRK1/2, thallium flux, primary screen (AID 624);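 note: slope of fluorescence ratio to pre-addition baseline per second over 15 to 24 s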
experimental_context: thallium flux BTC fluorescence, at 10 µM, actives lie on both sides
Entries get a class label from measured slope. See ranges: low band = under 0.005, middle band = from 0.005 up to 0.006, high band = 0.006 and over

[
  {
    "molecule": "CC1CCN(Cc2nc3c(c(=O)n(C)c(=O)n3C)n2Cc2cccc3ccccc23)CC1",
    "target_or_system": "Alpha-2C adrenergic receptor (Homo sapiens)",
    "qualitative_label": "middle band"
  },
  {
    "molecule": "C=C(C)Cn1c(-c2ccccc2)nc2ccccc21",
    "target_or_system": "Alpha-2C adrenergic receptor (Homo sapiens)",
    "qualitative_label": "low band"
  },
  {
    "molecule": "CS(=O)(=O)N1CCCC(C(=O)NCCCN2CCC(Cc3ccccc3)CC2)C1 (stereo not drawn)",
    "target_or_system": "Alpha-2C adrenergic receptor (Homo sapiens)",
    "qualitative_label": "high band"
  },
  {
    "molecule": "CCN1CCCC1CNC(=O)c1cc2c(=O)n(C)c3ccccc3c2n1C (stereo not drawn)",
    "target_or_system": "Alpha-2C adrenergic receptor (Homo sapiens)",
    "qualitative_label": "high band"
  },
  {
    "molecule": "CCN(CC)S(=O)(=O)c1ccc(F)c(C(=O)NCCC(C)C)c1",
    "target_or_system": "Alpha-2C adrenergic receptor (Homo sapiens)",
    "qualitative_label": "low band"
  },
  {
    "molecule": "CCc1ccccc1NC(=O)c1cnc2n(c1=O)CCS2",
    "target_or_system": "Alpha-2C adrenergic receptor (Homo sapiens)",
    "qualitative_label": "high band"
  },
  {
    "molecule": "O=C(CCSc1nc(-c2ccco2)cc(C(F)(F)F)n1)Nc1ccc2c(c1)OCO2",
    "target_or_system": "Alpha-2C adrenergic receptor (Homo sapiens)",
    "qualitative_label": "low band"
  },
  {
    "molecule": "O=C(C1CCCO1)N1CCN(Cc2nc3ccccc3c(=O)[nH]2)CC1 (stereo not drawn)",
    "target_or_system": "Alpha-2C adrenergic receptor (Homo sapiens)",
    "qualitative_label": "high band"
  },
  {
    "molecule": "COc1cccc(/C=N/n2cnnc2)c1OCc1ccccc1",
    "target_or_system": "Alpha-2C adrenergic receptor (Homo sapiens)",
    "qualitative_label": "low band"
  },
  {
    "molecule": "CCCCCSc1nc2c(cnn2-c2ccccc2)c(=O)[nH]1",
    "target_or_system": "Alpha-2C adrenergic receptor (Homo sapiens)",
    "qualitative_label": "low band"
  },
  {
    "molecule": "CCOc1ccc(NC(=O)CSc2nccn2C)cc1",
    "target_or_system": "Alpha-2C adrenergic receptor (Homo sapiens)",
    "qualitative_label": "low band"
  },
  {
    "molecule": "COC(=O)Cn1c(=O)c2c(nc(Br)n2CC(=O)OC)n(C)c1=O",
    "target_or_system": "Alpha-2C adrenergic receptor (Homo sapiens)",
    "qualitative_label": "low band"
  },
  {
    "molecule": "CC(C)Cc1nnc(NS(=O)(=O)c2ccc(Cl)cc2)s1",
    "target_or_system": "Alpha-2C adrenergic receptor (Homo sapiens)",
    "qualitative_label": "high band"
  },
  {
    "molecule": "COc1ccc(-n2nnnc2SCC(=O)c2ccc(O)c(O)c2)cc1",
    "target_or_system": "Alpha-2C adrenergic receptor (Homo sapiens)",
    "qualitative_label": "low band"
  },
  {
    "molecule": "C=CCn1c(SCC(=O)NCCCC)nc2scc(-c3ccco3)c2c1=O",
    "target_or_system": "Alpha-2C adrenergic receptor (Homo sapiens)",
    "qualitative_label": "middle band"
  },
  {
    "molecule": "Cn1c(SCC(=O)Nc2cccc3ccccc23)nc(O)cc1=O",
    "target_or_system": "Alpha-2C adrenergic receptor (Homo sapiens)",
    "qualitative_label": "low band"
  },
  {
    "molecule": "Cc1[nH]nc2c1C(=O)CCC2",
    "target_or_system": "Alpha-2C adrenergic receptor (Homo sapiens)",
    "qualitative_label": "middle band"
  },
  {
    "molecule": "Cc1cc(C)n2nc[n+](C)c2n1",
    "target_or_system": "Alpha-2C adrenergic receptor (Homo sapiens)",
    "qualitative_label": "high band"
  },
  {
    "molecule": "CCOC(=O)C1CCN(Cc2ccc(OC)c(C)c2OC)CC1",
    "target_or_system": "Alpha-2C adrenergic receptor (Homo sapiens)",
    "qualitative_label": "middle band"
  },
  {
    "molecule": "Cc1ccc(-n2c3c(cc(C(=O)NC4CCSC4=O)c2=O)C(=O)CC(C)(C)C3)cc1 (stereo not drawn)",
    "target_or_system": "Alpha-2C adrenergic receptor (Homo sapiens)",
    "qualitative_label": "low band"
  },
  {
    "molecule": "Cc1sc2ncn3ncnc3c2c1C",
    "target_or_system": "Alpha-2C adrenergic receptor (Homo sapiens)",
    "qualitative_label": "low band"
  },
  {
    "molecule": "OC1C=CSc2nc3ccccc3n21 (stereo not drawn)",
    "target_or_system": "Alpha-2C adrenergic receptor (Homo sapiens)",
    "qualitative_label": "middle band"
  },
  {
    "molecule": "Cc1nn(Cc2ccc(C(=O)NC3CCCCC3)o2)c(C)c1Br",
    "target_or_system": "Alpha-2C adrenergic receptor (Homo sapiens)",
    "qualitative_label": "low band"
  },
  {
    "molecule": "COc1cc(CN2CCC(C(=O)NC3CCCC3)CC2)ccc1O",
    "target_or_system": "Alpha-2C adrenergic receptor (Homo sapiens)",
    "qualitative_label": "high band"
  },
  {
    "molecule": "COc1cccc(-c2nnn(CC(=O)O)n2)c1",
    "target_or_system": "Alpha-2C adrenergic receptor (Homo sapiens)",
    "qualitative_label": "high band"
  },
  {
    "molecule": "CCOc1ccc(-c2nnc(N)s2)cc1",
    "target_or_system": "Alpha-2C adrenergic receptor (Homo sapiens)",
    "qualitative_label": "middle band"
  },
  {
    "molecule": "CCc1ccc(N2CC34C=CC(O3)C(C(=O)OC)C4C2=O)cc1 (stereo not drawn)",
    "target_or_system": "Alpha-2C adrenergic receptor (Homo sapiens)",
    "qualitative_label": "high band"
  },
  {
    "molecule": "COc1ccc(N2CCN(CCCNC(=O)CC3Oc4ccc(C)cc4NC3=O)CC2)cc1 (stereo not drawn)",
    "target_or_system": "Alpha-2C adrenergic receptor (Homo sapiens)",
    "qualitative_label": "high band"
  },
  {
    "molecule": "O=C(CSc1nc2c(c(=O)n1-c1ccc(F)cc1)SCC2)NCC1CCCO1 (stereo not drawn)",
    "target_or_system": "Alpha-2C adrenergic receptor (Homo sapiens)",
    "qualitative_label": "low band"
  },
  {
    "molecule": "N#C/C(=C(/O)COC(=O)CCC1CCCCC1)c1nc2ccccc2[nH]1",
    "target_or_system": "Alpha-2C adrenergic receptor (Homo sapiens)",
    "qualitative_label": "low band"
  },
  {
    "molecule": "Cc1ccc2nc(NC(=O)C3CCCN(S(=O)(=O)c4cccc5nonc45)C3)sc2c1 (stereo not drawn)",
    "target_or_system": "Alpha-2C adrenergic receptor (Homo sapiens)",
    "qualitative_label": "low band"
  },
  {
    "molecule": "COc1ccccc1Nc1ccc(C(=O)NC2CCCCC2)cn1",
    "target_or_system": "Alpha-2C adrenergic receptor (Homo sapiens)",
    "qualitative_label": "high band"
  },
  {
    "molecule": "CCOCCCNC(=O)C1CCN(S(=O)(=O)N(CC(C)C)CC(C)C)CC1",
    "target_or_system": "Alpha-2C adrenergic receptor (Homo sapiens)",
    "qualitative_label": "low band"
  }
]
